QUANTITY_KIND: melting point

>>> print(df.to_string())
                                   molecule  quantity_kind  measured_value
0  Cc1nccn1-c1nc(-c2ccc(Cl)cc2)c(CCCCCCO)o1 [Example 84]  melting point     70 to 71 °C
1  CC(C)Sc1nc(-c2ccc(Cl)cc2)c(CCC(=O)O)o1 [Example 7]  melting point   132 to 133 °C

Shift focus to the following entry.
Data request: Looking for the measured melting point of Cc1nccn1-c1nc(-c2ccc(Cl)cc2)c(CCC2=NCCO2)o1 [Example 46] , can you help?
Data returned: 119 to 120 °C

====

QUANTITY_KIND: melting point

                                   molecule  measured_value
0  Cc1nccn1-c1nc(-c2ccc(Cl)cc2)c(CCCCn2ccnc2)o1     84 to 85 °C

Data request: Looking for the measured melting point of O=C(O)CCc1oc(-n2ccnc2)nc1-c1ccc(Cl)cc1 , can you help?
Data returned: 194 to 195 °C

Data request: What do we get for Cc1nccn1-c1nc(-c2ccc(Cl)cc2)c(CCCCCn2ccnc2)o1.Cl.Cl.O (hydrate or solvate) ?
Data returned: 197 to 199 °C

Data request: What do we get for Cc1nccn1-c1nc(-c2ccc(Cl)cc2)c(CCC(N)=O)o1 ?
Data returned: 215 to 216 °C

Data request: What do we get for Cc1ccc(Sc2nc(-c3ccc(Cl)cc3)c(CCC(=O)O)o2)cc1 ?
Data returned: 160 to 161 °C

Data request: What do we get for OCCCc1oc(-n2ccnc2)nc1-c1ccc(Cl)cc1 ?
Data returned: 114 to 115 °C

Data request: What do we get for Cc1nccn1-c1nc(-c2ccc(Cl)cc2)c(CCCC2=NCCO2)o1 ?
Data returned: 88 to 89 °C

====

Tested on: KKA^y mice
Assay: Test for blood sugar depression in mice
Format: in vivo
Conditions: Mus musculus, 1 h; fasted male KKA^y mice, oral 30 mg/kg, 60 minutes after administration, compared with control group; read-out: Degree of Blood Glucose Depression (%) After 60 minutes
Entries and their measured inhibition in vivo at 30 mg/kg follow.
Report the figure in % without appending any unit label.

# annotated cases, reported inhibition in vivo at 30 mg/kg shown
                                     smiles  measured_value
0  CSc1nccn1-c1nc(-c2ccc(Cl)cc2)c(CCC(=O)O)o1              25
1  Cc1nccn1-c1nc(-c2ccc(Cl)cc2)c(CCC(=O)O)o1              38
2     Cc1nccn1-c1nc(-c2ccc(Cl)cc2)c(CCCO)o1              23
3  CC(C)c1nccn1-c1nc(-c2ccc(Cl)cc2)c(CCC(=O)O)o1              27
4  CCc1nccn1-c1nc(-c2ccc(Cl)cc2)c(CCC(=O)O)o1              32
5    O=C(O)CCc1oc(-n2cccn2)nc1-c1ccc(Cl)cc1              24
6  O=C(O)CCc1oc(-n2cnc3ccccc32)nc1-c1ccc(Cl)cc1              27

Shift focus to the following entry.
Data request: Look up inhibition in vivo at 30 mg/kg with KKA^y mice for this compound: O=C(O)CCc1oc(Sc2ccccn2)nc1-c1ccc(Cl)cc1
Data returned: 22
